The measurements presented in this section are drawn from patent US20220396627A1.

biological target: Human Siglec-9-Fc (recombinant human Siglec-9 extracellular domain Q18-G348 fused to human IgG1 Fc) (human); test: BLI binning, hSiglec-9-Fc on AHC sensor; competitor bound first (row): 9C15
Sequence (chain, as listed by the source limits assumed): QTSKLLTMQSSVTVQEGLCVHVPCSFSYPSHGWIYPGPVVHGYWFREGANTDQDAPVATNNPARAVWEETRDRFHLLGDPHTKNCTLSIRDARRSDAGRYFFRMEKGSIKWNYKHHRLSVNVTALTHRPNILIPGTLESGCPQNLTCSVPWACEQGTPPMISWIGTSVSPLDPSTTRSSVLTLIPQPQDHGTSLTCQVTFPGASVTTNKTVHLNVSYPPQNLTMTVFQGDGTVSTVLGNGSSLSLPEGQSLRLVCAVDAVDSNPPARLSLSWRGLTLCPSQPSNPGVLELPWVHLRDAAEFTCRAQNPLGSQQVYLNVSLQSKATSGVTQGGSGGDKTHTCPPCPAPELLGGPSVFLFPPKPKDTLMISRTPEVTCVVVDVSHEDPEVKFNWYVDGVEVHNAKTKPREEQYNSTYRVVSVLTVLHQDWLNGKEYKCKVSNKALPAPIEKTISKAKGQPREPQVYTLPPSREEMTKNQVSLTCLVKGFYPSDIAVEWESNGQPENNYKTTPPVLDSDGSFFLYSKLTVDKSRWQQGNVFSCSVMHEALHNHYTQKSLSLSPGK
measuredAttribute: maximum binding nm shift (nm)
I only need the number, in nm, no unit after it.

binder="12G23 (antibody, V domains shown) VH: EVQLQQSGPELVRPGASVKMSCKASGYTFTDYNMHWVKQSHGKSLEWIGYINPNNGGTSYNQKFKGKATLTVNKSSSTAYMELRSLTSDDSAVYYCAREGYGNYPFYWGQGTTLTVSS VL: DIVLTQSPASLAVSLGQRVTISCRGSESVEYYGTSLMQWYQQKPGQPPKLLIYAASNVESGVPARFSGSGSGTDFSLNIHPVEEDDIAMYFCQQDRKVPYTFGGGTKLEIK" measuredattribute="maximum binding nm shift" reportedvalue=0.233
binder="12L19 (antibody, V domains shown) VH: QVTLKESGPGILQPSQTLSLTCSFSGFSLNTFGMAVGWIRQPSGKGLEWLAHIWWDDSYYFNPALRSRLTISKDTSKNQVFLTIANVDTADTATYYCTRIPDDYDDYAMDYWGQGTSVTVSS VL: DVVMTQTPLSLPVSLGDQASISCRSSQSLVHSNGNTYLHWYLQKPGQSPKLLVYKVSNRFSGVPDRFSGSGSGTDFTLKISRVEAEDLGVYFCSQNTHIPYTFGGGTKLEIK" measuredattribute="maximum binding nm shift" reportedvalue=0.231

Asked: Could you tell me which maximum binding nm shift is on file for 9D21 (antibody, V domains shown) VH: QVQLKESGPGLVAPSQSLSITCTVSGFSLTRYGVSWVRQPPGKGLEWLGVIWGDGSTNYHSALISRLSISKDNSKSQVFLKLNSLQTDDTATYYCARPYYGFFDYWGQGTTLTVSS VL: SIVMTQTPKFLLVSAGDRVTITCKASQSVSNAVAWYQQKPGQSPKMLIYYASNRYTGVPDRFTGSGYGTDFTFTISTVQAEDLAVYFCQQDYSSPYTFGGGTKLEIK ?
Given back: 0.561

Asked: Could you tell me which maximum binding nm shift is on file for 13O18 (antibody, V domains shown) VH: EVQLQQSGPELVRPGASVKMSCKASGYTFTDYNMHWVKQSHGKSLEWIGYINPNNGGTTYNQNFKGKATLTVNKSSSTAYMELRSLTSEDSAVYYCAREGYGNYPFYWGQGTTLTVSS VL: DIVLTQSPASLAVSLGQRVTISCRASESVEYYGTSLMQWYQQKPGQPPKLLIYAASNVESGVPARFSGSGSGTDFSLNIHPVEEDDIAMFFCQQDRKVPYTFGGGTKLEIK ?
Given back: 0.232

Asked: Could you tell me which maximum binding nm shift is on file for 12P18 (antibody, V domains shown) VH: QVQLQQSGAELVRPGASVTLSCKASGYTFTDYEMHWVKQTPVHGLEWIGAIDPEAGGTAYNRKFKGKAILTADKSSSTAYMELRSLTSEDSAVYYCTNLGRDYWGQGTTLTVSS VL: DIVMSQSPSSLAVSVGEKVTMSCKSSQSLLYSSTQKNYLAWYQQKPGQSPKRLIYWASTRESGVPDRFTGSGSGTDFTLTISSVKAEDLAVYYCQQYYSYWTFGGGTKLEIK ?
Given back: 0.03
